Data credit: patent US20220112288A1

subject-of-test: T1, Rhesus macaque CD4-HIS (Acro Biosystems, Cat. CD4-C52H7) (rhesus macaque, UniProt P16003 26-390)
T1 construct: Bought reagent; also called Rhesus CD4; rhesus CD4-HIS; not shown: His tag
test-summary: BLI (Octet Red384); Ab on anti-mouse Fc (AMC) sensor; rhesus CD4-HIS 100/50/25 nM; global 1:1 fit;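 note: antibodies loaded at 10 µg/mL, an unrelated mouse-derived antibody served as internal reference, curves fit over association and dissociation phases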
parameter: Response
Answer using only a numeral; do not append any unit.

If you can, please state the reported Response value of 75110_06D16A (antibody, V domains shown, Tested as antibody purified from AlivaMab Mouse hybridoma supernatant (human variable domains, kappa; mouse Fc, captured on anti-mouse IgG Fc sensors); also called ADS75110 purified AMM Ab) VH: QVQLQQWGAGLLKPSETLSLTCAVYGGSFSGYYWSWIRQPPGKGLEWIGEINHSGSTNYNPSLKSRVTISVVTSKNQFSLKLSSVTAADTAVYYCARVLNWFDPWGQGTLVTVSS VL: DIQMTQSPSSVSASVGDRVTITCRASQDIADWLAWYQQKPGKAPKLLIYAASSFQSGVPSRFSGSGSGTDFTLTISSLQPEDFATYFCQQANSFPYTFGQGTKLEIK . 0.09

If you can, please state the reported Response value of 75110_10K21A (antibody, V domains shown, Tested as antibody purified from AlivaMab Mouse hybridoma supernatant (human variable domains, kappa; mouse Fc, captured on anti-mouse IgG Fc sensors); also called ADS75110 purified AMM Ab) VH: EVQLVESGGGLVQPGGSLRLSCAASGFTFSSYWMTWVRQAPGKGLEWVANIKQDGSEKYYVDSVKGRFTISRDNAKNSLYLQMNSLRAEDTAVYYCVRDRYDALDIWGQGTMVTVSS VL: AIQMTQSPSSLSASVGDRVTITCRASQGIRNDLNWYQQKPGKAPKLLIYAASSLQSGVPSRFSGSGSGTDFTLTISSLQAEDFATYYCLKDYNYPYTFGQGTKLEIK . 0.23

If you can, please state the reported Response value of 75110_06K03A (antibody, V domains shown, Tested as antibody purified from AlivaMab Mouse hybridoma supernatant (human variable domains, kappa; mouse Fc, captured on anti-mouse IgG Fc sensors); also called ADS75110 purified AMM Ab) VH: QVQLQESGPGLVKPSETLSLTCTVSGGSISTYYWSWIRQPAGKGLEWIGRINTSGSTTYNPSLKSRVTMSVDTSKNQFSLKLSSVTAADTAVYYCARELERYYYYGMDVWGQGTTVTVSS VL: DIQMTQSPSSLSASVGDRVTITCQASQDISNYLNWYQQKPGKAPKLLIYYASILETGVPSRFSGSGSGTDFTFTISSLQPEDIATYYCQQYDSLPLTFGGGTKVEIK . 0.13
